Numbers sourced from ChEMBL document CHEMBL1150366.

Measurement notes: Binding affinity to CDK4/D
Endpoint label: log(10'6/IC50)

As a guide, the following entries are already answered.
>>> value_reported("O=c1ccc2cnc(Nc3ccccc3)nc2n1C1CCCC1")
3.68
>>> value_reported("O=c1ccc2cnc(Nc3ccccc3)nc2n1-c1ccccc1")
2.78
>>> value_reported("CCCn1c(=O)ccc2cnc(Nc3ccccc3)nc21")
3.26
>>> value_reported("CCn1c(=O)ccc2cnc(Nc3ccc(OC)c(OC)c3)nc21")
2.39
>>> value_reported("CN1CCN(c2ccc(Nc3ncc4ccc(=O)n(C5CC5)c4n3)cc2)CC1")
3.85
>>> value_reported("CCn1c(=O)ccc2cnc(Nc3ccccc3)nc21")
3.21
>>> value_reported("CCn1c(=O)ccc2cnc(Nc3ccc(N4CCN(C)CC4)cc3)nc21")
4.07
>>> value_reported("CN1CCN(c2ccc(Nc3ncc4ccc(=O)n(CCOCc5ccccc5)c4n3)cc2)CC1")
2.68

I. CCN(CC)CCOc1ccc(Nc2ncc3ccc(=O)n([C@H]4C[C@H]5CC[C@H]4C5)c3n2)cc1 (relative stereo)
II. Cn1c(=O)ccc2cnc(Nc3ccccc3)nc21
Hey, which is lower on measured log(10'6/IC50), I or II ? Answer with the label corresponding to your selection. II

I. CC(C)Cn1c(=O)ccc2cnc(Nc3ccccc3)nc21
II. CCn1c(=O)ccc2cnc(NC(C)C)nc21
Input pair: I , II . Output: entry with lower log(10'6/IC50). Identify your selection by its label. II

----------
Measurement notes: Binding affinity to CDK4/D
Endpoint label: log(10'6/IC50)

>>> value_reported("COC(=O)Cn1c(=O)ccc2cnc(Nc3ccccc3)nc21")
1.51
>>> value_reported("CC(C)n1c(=O)ccc2cnc(Nc3ccc(N4CCN(C)CC4)cc3)nc21")
4.49
>>> value_reported("CCn1c(=O)ccc2cnc(Nc3ccc(OC)cc3)nc21")
3.22
>>> value_reported("CCn1c(=O)ccc2cnc(Nc3ccc(F)cc3)nc21")
2.91
>>> value_reported("O=c1ccc2cnc(Nc3ccccc3)nc2n1CC1CCCCC1")
1.87

A. CCNc1ncc2ccc(=O)n(CC)c2n1
B. CCCCn1c(=O)ccc2cnc(Nc3ccccc3)nc21
Two entries are listed, A and B . Which one carries the higher log(10'6/IC50)? Answer with the label corresponding to your selection. B

----------
Measurement notes: Binding affinity to CDK4/D
Endpoint label: log(10'6/IC50)

>>> value_reported("CCn1c(=O)ccc2cnc(Nc3cccc(F)c3)nc21")
2.85

P. CCn1c(=O)ccc2cnc(N(C)c3ccccc3)nc21
Q. CCN(CC)CCOc1ccc(Nc2ncc3ccc(=O)n(C4CCCC4)c3n2)cc1
Which shows the larger log(10'6/IC50) value: P or Q ? Your choice should be expressed through its label. Q
(Q: 6.15, P: 1.4)
